- System: Myotonic Dystrophy 1 affected patient fibroblasts (Coriell GM04602; 1600 CTG repeats)
- RUN_DESCRIPTION: DM1 foci reduction assay (CAG10-Cy3 FISH, average foci per nucleus)
- Format: cell-based
- EXPERIMENTAL_PARAMETERS: Homo sapiens, Fibroblast, 48 h, read-out: Foci Reduction in Fibroblast EC50, 48 h (nM)
The following compounds are listed with their measured EC50 values.

COMPOUND	EC50
CCN(CC)CCCC[C@H](NC(=O)[C@H](CC(C)C)NC(=O)[C@H](C)NC(=O)[C@H](Cc1ccccc1)NC(=O)c1ccc(C(C)(C)C)cc1)C(=O)N[C@@H](CO)C(=O)NCCOCCOCCNC(=O)c1cc(NC(=O)c2cc(NC(=O)c3nc(NC(=O)c4cc(NC(=O)[C@@H](N)CCNC(=O)c5nc(NC(=O)c6cc(NC(=O)c7cc(NC(=O)c8nccn8C)cn7C)cn6C)cn5C)cn4C)cn3C)cn2C)cn1C	> 500 nM
CC(=O)N[C@@H](CCCCN(C)C1CC2CCC1C2)C(=O)N[C@@H](CO)C(=O)NCCOCCOCCOCCOCCOCCNC(=O)CCNC(=O)c1nc(NC(=O)c2cc(NC(=O)CCNC(=O)c3nc(NC(=O)CCCNC(=O)c4cc(NC(=O)c5nc(NC(=O)CCNC(=O)c6cc(NC(=O)c7nccn7C)cn6C)cn5C)cn4C)cn3C)cn2C)cn1C (stereo partly shown)	100 to 500 nM
CCN(CC)CCCC[C@H](NC(=O)OC(C)(C)C)C(=O)N[C@@H](CO)C(=O)NCCOCCOCCOCCOCCOCCNC(=O)CCNC(=O)c1nc(NC(=O)c2cc(NC(=O)CCNC(=O)c3nc(NC(=O)CCCNC(=O)c4cc(NC(=O)c5nc(NC(=O)CCNC(=O)c6cc(NC(=O)c7nccn7C)cn6C)cn5C)cn4C)cn3C)cn2C)cn1C	100 to 500 nM
CCN(CC)CCCC[C@H](NC(=O)[C@H](CC(C)C)NC(=O)[C@H](C)NC(=O)[C@H](Cc1ccccc1)NC(=O)c1ccc(C(C)(C)C)cc1)C(=O)N[C@@H](CO)C(=O)NCCOCCOCCOCCOCCOCCNC(=O)c1cc(NC(=O)c2cc(NC(=O)c3nc(NC(=O)c4cc(NC(=O)[C@@H](N)CCNC(=O)c5nc(NC(=O)c6cc(NC(=O)c7cc(NC(=O)c8nccn8C)cn7C)cn6C)cn5C)cn4C)cn3C)cn2C)cn1C	> 500 nM
CCN(CC)CCCC[C@H](NC(=O)[C@H](CC(C)C)NC(=O)[C@H](C)NC(=O)[C@H](Cc1ccccc1)NC(=O)c1ccc(C(C)(C)C)cc1)C(=O)N[C@@H](CO)C(=O)NCCOCCOCCOCCOCCOCCNC(=O)c1cc(NC(=O)c2nc(NC(=O)c3cc(NC(=O)[C@H](N)CCNC(=O)c4nc(NC(=O)CCNC(=O)c5cc(NC(=O)c6nccn6C)cn5C)cn4C)cn3C)cn2C)cn1C	> 500 nM
CC(C)C[C@H](NC(=O)[C@H](C)NC(=O)[C@H](Cc1ccccc1)NC(=O)c1ccc(C(C)(C)C)cc1)C(=O)N[C@@H](CCCCN(C)C1CC2CCC1C2)C(=O)N[C@@H](CO)C(=O)NCCOCCOCCOCCOCCOCCNC(=O)CCNC(=O)c1nc(NC(=O)c2cc(NC(=O)CCNC(=O)c3nc(NC(=O)CCCNC(=O)c4cc(NC(=O)c5nc(NC(=O)CCNC(=O)c6cc(NC(=O)c7nccn7C)cn6C)cn5C)cn4C)cn3C)cn2C)cn1C (stereo partly shown)	100 to 500 nM
CC(C)C[C@H](NC(=O)[C@H](C)NC(=O)[C@H](Cc1ccccc1)NC(=O)c1ccc(C(C)(C)C)cc1)C(=O)N[C@@H](CCCCN(C)C1CC2CCC1C2)C(=O)N[C@@H](CO)C(=O)NCCOCCOCCOCCOCCOCCNC(=O)c1cc(NC(=O)c2cc(NC(=O)c3nc(NC(=O)c4cc(NC(=O)[C@@H](N)CCNC(=O)c5nc(NC(=O)c6cc(NC(=O)c7cc(NC(=O)c8nccn8C)cn7C)cn6C)cn5C)cn4C)cn3C)cn2C)cn1C (stereo partly shown)	> 500 nM
CCN(CC)CCCC[C@H](NC(=O)[C@H](CC(C)C)NC(=O)[C@H](C)NC(=O)[C@H](Cc1ccccc1)NC(=O)c1ccc(C(C)(C)C)cc1)C(=O)N[C@@H](CO)C(=O)NCCOCCOCCOCCOCCN1CCN(C(=O)CCNC(=O)c2nc(NC(=O)c3cc(NC(=O)CCNC(=O)c4nc(NC(=O)CCCNC(=O)c5cc(NC(=O)c6nc(NC(=O)CCNC(=O)c7cc(NC(=O)c8nccn8C)cn7C)cn6C)cn5C)cn4C)cn3C)cn2C)CC1	100 to 500 nM
CCN(CC)CCCC[C@H](NC(=O)[C@H](CC(C)C)NC(=O)[C@H](C)NC(=O)[C@H](Cc1ccccc1)NC(=O)c1ccc(C(C)(C)C)cc1)C(=O)N[C@@H](CO)C(=O)NCCOCCOCCOCCOCCOCCNC(=O)c1cc(NC(=O)c2nc(NC(=O)[C@H](N)CCNC(=O)c3cc(NC(=O)c4nc(NC(=O)CCNC(=O)c5cc(NC(=O)c6nccn6C)cn5C)cn4C)cn3C)cn2C)cn1C	> 500 nM
CCN(CC)CCCC[C@H](NC(=O)[C@H](CC(C)C)NC(=O)[C@H](C)NC(=O)[C@H](Cc1ccccc1)NC(=O)c1ccc(C(C)(C)C)cc1)C(=O)N[C@@H](CO)C(=O)NCCOCCOCCOCCOCCOCCNC(=O)CCNC(=O)c1nc(NC(=O)c2cc(NC(=O)CCNC(=O)c3nc(NC(=O)[C@H](N)CCNC(=O)c4cc(NC(=O)c5nc(NC(=O)CCNC(=O)c6cc(NC(=O)c7nccn7C)cn6C)cn5C)cn4C)cn3C)cn2C)cn1C	100 to 500 nM
